Assay: amyloid nucleation score (Sup35N fusion, yeast selection) (log enrichment); library NNK2; higher = more nucleation; inactive = no reads after selection;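 note: zero at mode of non-aggregating sequences after 7 days selection at 30°C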

[
  {
    "SUBSTANCE": "DSYGSFVKLMTVSVYMKGVF",
    "amyloid nucleation score": "inactive"
  },
  {
    "SUBSTANCE": "FLSEFVRIGPYARS",
    "amyloid nucleation score": "inactive"
  },
  {
    "SUBSTANCE": "WARFEKV",
    "amyloid nucleation score": "inactive"
  },
  {
    "SUBSTANCE": "FVVLFLFYFEVFAVYKVSLG",
    "amyloid nucleation score": "inactive"
  }
]

----------
Test: amyloid nucleation score (Sup35N fusion, yeast selection) (log enrichment); library NNK3; higher = more nucleation; inactive = no reads after selection
EXPERIMENTAL_ENDPOINT: amyloid nucleation score

Known amyloid nucleation score results, listed for orientation:
[
  {
    "SUBSTANCE": "QWMQRTW",
    "amyloid nucleation score": "inactive"
  },
  {
    "SUBSTANCE": "MKCCFSTLIPAKYNLDTLIL",
    "amyloid nucleation score": "inactive"
  },
  {
    "SUBSTANCE": "YFVCVEEVRKYMEPSELGVR",
    "amyloid nucleation score": "inactive"
  },
  {
    "SUBSTANCE": "HICIMNMLRFRCIWIPIFYM",
    "amyloid nucleation score": "inactive"
  },
  {
    "SUBSTANCE": "SALFMLPYALTRMVYANLLQ",
    "amyloid nucleation score": -0.004
  },
  {
    "SUBSTANCE": "VLRSNKYRITMGMGKKFPAL",
    "amyloid nucleation score": "inactive"
  }
]

*Q* GET /values?readout=amyloid nucleation score&item= PLSTITDGLMRSLVTLVGHS
*A* inactive

*Q* Entry QINSSLDMMRHTFCSEGYAV : reported amyloid nucleation score = ?
*A* inactive

*Q* Consider the substance GLSLNYCVLGYGLLTM and give its measured amyloid nucleation score.
*A* inactive

*Q* Any idea what its amyloid nucleation score is? The substance is DVCEGEIYDPDSLKWFYQFL
*A* inactive

----------
Assay: amyloid nucleation score (Sup35N fusion, yeast selection) (log enrichment); library NNK2; higher = more nucleation; inactive = no reads after selection
EXPERIMENTAL_ENDPOINT: amyloid nucleation score

[
  {
    "SUBSTANCE": "FSRQISNGFIRGLFL",
    "ENDPOINT_VALUE": "inactive"
  },
  {
    "SUBSTANCE": "SVLAAP",
    "ENDPOINT_VALUE": "inactive"
  },
  {
    "SUBSTANCE": "RCLWYKACMRPF",
    "ENDPOINT_VALUE": "inactive"
  }
]

----------
Test: amyloid nucleation score (Sup35N fusion, yeast selection) (log enrichment); library NNK1; higher = more nucleation; inactive = no reads after selection

[
  {
    "SEQ_STRING": "PESCANSWSMSYGAFGAVYC",
    "amyloid nucleation score": "inactive"
  },
  {
    "SEQ_STRING": "FPDYVDTTFRQIWECLWFFP",
    "amyloid nucleation score": "inactive"
  },
  {
    "SEQ_STRING": "QGSVSRCISEALTVRCYRTG",
    "amyloid nucleation score": "inactive"
  }
]
